- tested_on: T1, human interleukin 13 receptor subunit alpha 2 (IL-13RA2) (human, UniProt Q14627 27-380)
- T1 construct: whole, on cells; also called IL-13Rα2; CD213A2
- T1 sequence (looked up): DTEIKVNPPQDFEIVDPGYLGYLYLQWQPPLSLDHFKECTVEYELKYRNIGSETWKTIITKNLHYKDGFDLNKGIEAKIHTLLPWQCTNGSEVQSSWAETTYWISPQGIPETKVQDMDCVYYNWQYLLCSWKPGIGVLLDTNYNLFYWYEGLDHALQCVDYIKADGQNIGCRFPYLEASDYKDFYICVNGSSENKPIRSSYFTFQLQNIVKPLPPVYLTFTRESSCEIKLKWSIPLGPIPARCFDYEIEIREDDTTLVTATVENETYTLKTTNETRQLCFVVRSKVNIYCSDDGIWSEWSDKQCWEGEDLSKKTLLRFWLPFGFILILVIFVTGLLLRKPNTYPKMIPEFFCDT
- test_summary: FACS on A375 cells
value_type: EC50 (nM)
Field: numeric (nM). Do not append units.

Task: # EC50 lookup, item xi61H8C1 hIgG1 (antibody, V domains shown) VH: QVQLQQSGAELARPGASVMLSCKASGYTFTSYWTQWIKQRPGQGLEGIGAIYPGDDDTSYNQKFKGKATLTADKSSSTAYMQLNSLTSEDSAVYYCARGATLLRPFPYWGQGTLVTVSA VL: DIVMTQSHKFMSTSVGDRVSITCKASQDVSTAVAWYQQKPGQSPKLLIYSASYRYTGVPDRFTGSGSGTDFTFTISSVQAEDLAVYSCQQHYSIPPTFGGGTKLEIK
Result: 0.47

Reference source: patent US20250163164A1
